Target: T1, Human c-Met-Flis-Fc ECD (human)
T1 construct: also called human c-Met extracellular domain (ECD)-Fc-Flis fusion; Human cMet-ECD-Fc-Flis
T1 sequence (chain, as listed by the source limits assumed): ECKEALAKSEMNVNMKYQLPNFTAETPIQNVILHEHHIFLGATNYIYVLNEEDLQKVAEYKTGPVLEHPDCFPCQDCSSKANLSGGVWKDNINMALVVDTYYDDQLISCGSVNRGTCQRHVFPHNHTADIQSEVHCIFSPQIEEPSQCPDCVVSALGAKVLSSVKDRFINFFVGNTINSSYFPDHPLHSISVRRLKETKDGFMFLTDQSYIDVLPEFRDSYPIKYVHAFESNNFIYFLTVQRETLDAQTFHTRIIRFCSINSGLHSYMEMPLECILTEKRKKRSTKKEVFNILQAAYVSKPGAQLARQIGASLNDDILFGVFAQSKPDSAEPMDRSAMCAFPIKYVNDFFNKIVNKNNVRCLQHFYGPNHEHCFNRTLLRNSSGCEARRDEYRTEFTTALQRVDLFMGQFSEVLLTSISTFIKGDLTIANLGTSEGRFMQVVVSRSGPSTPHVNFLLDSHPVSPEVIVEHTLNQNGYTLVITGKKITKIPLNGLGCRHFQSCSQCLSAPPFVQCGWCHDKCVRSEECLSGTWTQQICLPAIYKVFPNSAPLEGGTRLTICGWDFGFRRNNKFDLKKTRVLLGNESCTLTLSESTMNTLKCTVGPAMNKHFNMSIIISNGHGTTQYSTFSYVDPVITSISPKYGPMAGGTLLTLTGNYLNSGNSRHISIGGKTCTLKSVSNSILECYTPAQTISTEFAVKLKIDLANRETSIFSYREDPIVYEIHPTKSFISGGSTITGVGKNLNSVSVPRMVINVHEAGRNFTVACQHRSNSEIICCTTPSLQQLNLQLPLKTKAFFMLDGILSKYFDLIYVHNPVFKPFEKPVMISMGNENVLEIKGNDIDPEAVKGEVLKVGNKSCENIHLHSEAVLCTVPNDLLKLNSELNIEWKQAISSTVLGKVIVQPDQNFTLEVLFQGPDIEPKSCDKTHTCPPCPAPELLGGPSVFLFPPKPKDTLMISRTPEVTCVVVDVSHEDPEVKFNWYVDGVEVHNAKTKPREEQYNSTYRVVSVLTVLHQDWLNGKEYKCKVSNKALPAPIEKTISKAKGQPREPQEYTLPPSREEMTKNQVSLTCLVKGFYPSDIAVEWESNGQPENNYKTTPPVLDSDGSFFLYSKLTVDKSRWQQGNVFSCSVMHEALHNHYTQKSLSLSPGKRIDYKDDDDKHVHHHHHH
Assay: ELISA, coated ECD-Fc, antibody 0.357 ng/mL
property: Average A450 nm (A450 nm)
Answers are plain numbers, in A450 nm.

Please look at the items below and tell me Average A450 nm for each one, in order.
1. D11-C27G3 (antibody, human IgG2, kappa, V domains shown, Human engineered IgG2, kappa; also called D11-27G3) VH: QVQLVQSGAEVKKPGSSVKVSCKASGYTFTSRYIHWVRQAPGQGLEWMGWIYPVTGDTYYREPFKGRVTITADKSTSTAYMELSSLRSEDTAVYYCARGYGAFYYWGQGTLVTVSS VL: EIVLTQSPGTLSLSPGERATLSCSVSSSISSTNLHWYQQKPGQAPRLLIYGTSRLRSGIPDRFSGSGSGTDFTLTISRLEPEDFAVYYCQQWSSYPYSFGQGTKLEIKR
2. D11-S17Y (antibody, human IgG2, kappa, V domains shown, Human engineered IgG2, kappa) VH: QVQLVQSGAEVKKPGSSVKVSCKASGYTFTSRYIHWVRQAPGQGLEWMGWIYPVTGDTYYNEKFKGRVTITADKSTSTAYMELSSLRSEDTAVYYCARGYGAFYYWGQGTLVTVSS VL: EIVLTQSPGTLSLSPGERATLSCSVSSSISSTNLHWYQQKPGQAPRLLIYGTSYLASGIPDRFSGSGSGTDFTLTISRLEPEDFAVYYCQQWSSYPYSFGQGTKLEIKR
3. C8-6 (antibody, human IgG2, kappa, V domains shown, Called IgG4, kappa; also called Mab C8-6) VH: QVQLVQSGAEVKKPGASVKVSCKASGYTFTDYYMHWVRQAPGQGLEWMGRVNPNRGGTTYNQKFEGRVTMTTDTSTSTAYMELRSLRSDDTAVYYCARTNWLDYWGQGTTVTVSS VL: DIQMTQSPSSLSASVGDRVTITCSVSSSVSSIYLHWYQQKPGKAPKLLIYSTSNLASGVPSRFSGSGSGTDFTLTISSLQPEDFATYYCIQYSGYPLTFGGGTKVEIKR

Key:
1: 1.44; 2: 0.789; 3: 0.813
